- Measured Target: Voltage-dependent T-type calcium channel subunit alpha-1G (Homo sapiens)
- Sequence (O43497 whole entry): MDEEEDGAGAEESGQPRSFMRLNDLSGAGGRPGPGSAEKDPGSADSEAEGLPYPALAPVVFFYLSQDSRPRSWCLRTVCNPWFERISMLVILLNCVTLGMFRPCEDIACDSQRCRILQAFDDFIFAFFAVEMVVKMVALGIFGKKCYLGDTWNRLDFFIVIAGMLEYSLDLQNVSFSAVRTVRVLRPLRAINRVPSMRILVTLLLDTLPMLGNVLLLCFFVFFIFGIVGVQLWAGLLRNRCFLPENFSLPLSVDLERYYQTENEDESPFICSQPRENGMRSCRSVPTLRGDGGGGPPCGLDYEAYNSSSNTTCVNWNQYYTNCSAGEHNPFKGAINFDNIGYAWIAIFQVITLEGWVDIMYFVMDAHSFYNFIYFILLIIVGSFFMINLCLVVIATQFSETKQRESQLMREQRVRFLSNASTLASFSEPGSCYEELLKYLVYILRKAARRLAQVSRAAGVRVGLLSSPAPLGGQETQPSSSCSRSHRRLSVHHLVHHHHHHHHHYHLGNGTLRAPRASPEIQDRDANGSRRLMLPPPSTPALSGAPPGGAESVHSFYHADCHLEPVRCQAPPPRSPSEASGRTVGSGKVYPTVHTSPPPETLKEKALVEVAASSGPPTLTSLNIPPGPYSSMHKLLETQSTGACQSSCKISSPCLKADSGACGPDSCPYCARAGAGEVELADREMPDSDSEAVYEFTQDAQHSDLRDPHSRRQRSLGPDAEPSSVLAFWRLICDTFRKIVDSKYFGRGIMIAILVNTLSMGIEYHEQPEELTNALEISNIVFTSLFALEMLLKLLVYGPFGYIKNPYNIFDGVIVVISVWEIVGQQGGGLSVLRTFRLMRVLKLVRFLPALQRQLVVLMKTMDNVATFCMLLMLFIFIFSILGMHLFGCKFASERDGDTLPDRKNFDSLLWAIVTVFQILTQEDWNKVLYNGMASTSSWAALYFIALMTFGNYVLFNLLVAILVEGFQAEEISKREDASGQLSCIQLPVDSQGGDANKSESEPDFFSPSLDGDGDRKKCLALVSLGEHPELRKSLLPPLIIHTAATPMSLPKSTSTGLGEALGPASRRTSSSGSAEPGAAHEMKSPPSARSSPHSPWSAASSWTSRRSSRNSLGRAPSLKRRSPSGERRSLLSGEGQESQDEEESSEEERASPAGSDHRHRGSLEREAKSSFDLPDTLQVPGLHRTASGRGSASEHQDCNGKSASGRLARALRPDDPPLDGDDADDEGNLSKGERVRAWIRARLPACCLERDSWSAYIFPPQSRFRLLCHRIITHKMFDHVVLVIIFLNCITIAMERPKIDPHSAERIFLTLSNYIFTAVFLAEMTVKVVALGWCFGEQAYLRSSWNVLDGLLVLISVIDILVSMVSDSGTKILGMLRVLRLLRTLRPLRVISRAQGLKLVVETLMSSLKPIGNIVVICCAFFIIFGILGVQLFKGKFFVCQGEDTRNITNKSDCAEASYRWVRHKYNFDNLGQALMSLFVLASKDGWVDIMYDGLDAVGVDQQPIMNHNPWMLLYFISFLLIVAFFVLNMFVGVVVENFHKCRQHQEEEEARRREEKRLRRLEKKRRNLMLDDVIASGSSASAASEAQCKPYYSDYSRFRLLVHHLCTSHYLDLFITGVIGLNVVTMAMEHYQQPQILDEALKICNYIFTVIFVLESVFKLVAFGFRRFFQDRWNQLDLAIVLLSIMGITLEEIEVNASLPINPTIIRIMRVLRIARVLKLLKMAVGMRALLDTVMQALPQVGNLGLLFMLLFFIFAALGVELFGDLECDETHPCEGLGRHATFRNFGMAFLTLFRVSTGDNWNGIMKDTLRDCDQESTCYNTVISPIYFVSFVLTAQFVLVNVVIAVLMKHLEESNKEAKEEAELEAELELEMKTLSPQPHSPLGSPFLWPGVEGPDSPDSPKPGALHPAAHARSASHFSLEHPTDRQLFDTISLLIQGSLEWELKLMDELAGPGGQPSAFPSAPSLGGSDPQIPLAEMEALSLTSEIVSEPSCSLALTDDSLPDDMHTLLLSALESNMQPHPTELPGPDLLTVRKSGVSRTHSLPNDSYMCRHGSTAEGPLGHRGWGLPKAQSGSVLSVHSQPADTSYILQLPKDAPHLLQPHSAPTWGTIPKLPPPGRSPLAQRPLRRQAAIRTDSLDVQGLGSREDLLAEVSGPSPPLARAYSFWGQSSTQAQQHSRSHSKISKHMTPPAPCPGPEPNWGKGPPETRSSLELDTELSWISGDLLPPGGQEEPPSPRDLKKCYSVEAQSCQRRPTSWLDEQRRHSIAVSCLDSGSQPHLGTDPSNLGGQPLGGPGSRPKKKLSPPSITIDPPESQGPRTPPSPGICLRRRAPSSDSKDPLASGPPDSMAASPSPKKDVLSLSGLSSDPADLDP
- Method Summary: Inhibition of T type calcium channel subunit alpha1G expressed in HEK293 cells assessed as effect on KCl-induced increase in intracellular calcium level at 10 uM by FDSS assay
- Assay type: cell-based
Use inhibition to assign classes; range list: low (below 30%), medium (30% to below 40%), high (40% or more)

Molecule: O=C(CCCN1CCN(Cc2ccc(Cl)cc2)CC1)Nc1ccc(Cl)cc1Cl
Label Class: high

Lab note: which band did O=C(CCCCN1CCN(Cc2ccc(Cl)c(Cl)c2)CC1)Nc1ccccc1Cl land in?
high

---

Listing of recorded IC50 by entry.
- Measured Target: Voltage-dependent T-type calcium channel subunit alpha-1G (Homo sapiens)
- Method Summary: Inhibition of T type calcium channel subunit alpha-1G expressed in HEK293 cells assessed as effect on T-type calcium currents by patch clamp method
Express the result in nM but write the number alone.

Molecule: O=C(CCCN1CCN(Cc2ccc(Cl)c(Cl)c2)CC1)Nc1ccc(Cl)cc1Cl
Measured Target: Voltage-dependent T-type calcium channel subunit alpha-1G (Homo sapiens)
IC50 / nM: 750
//
Molecule: O=C(CCCN1CCN(Cc2ccc3c(c2)OCO3)CC1)Nc1ccc(Cl)cc1
Measured Target: Voltage-dependent T-type calcium channel subunit alpha-1G (Homo sapiens)
IC50 / nM: 2730

Look at this molecule and give its reported IC50. O=C(CCCN1CCN(Cc2ccc3c(c2)OCO3)CC1)Nc1ccc(Cl)cc1Cl
1670

Same for O=C(CCCN1CCN(Cc2ccccc2)CC1)Nc1ccc(Cl)cc1
3520

These measurements were taken from ChEMBL document CHEMBL1142891.
